Source of measurements: paper PMC9607330

Parameter 'readout' = pIC50; parameter 'system' = EGFR kinase (Homo sapiens, UniProt P00533).
Sequence (P00533 25-1210): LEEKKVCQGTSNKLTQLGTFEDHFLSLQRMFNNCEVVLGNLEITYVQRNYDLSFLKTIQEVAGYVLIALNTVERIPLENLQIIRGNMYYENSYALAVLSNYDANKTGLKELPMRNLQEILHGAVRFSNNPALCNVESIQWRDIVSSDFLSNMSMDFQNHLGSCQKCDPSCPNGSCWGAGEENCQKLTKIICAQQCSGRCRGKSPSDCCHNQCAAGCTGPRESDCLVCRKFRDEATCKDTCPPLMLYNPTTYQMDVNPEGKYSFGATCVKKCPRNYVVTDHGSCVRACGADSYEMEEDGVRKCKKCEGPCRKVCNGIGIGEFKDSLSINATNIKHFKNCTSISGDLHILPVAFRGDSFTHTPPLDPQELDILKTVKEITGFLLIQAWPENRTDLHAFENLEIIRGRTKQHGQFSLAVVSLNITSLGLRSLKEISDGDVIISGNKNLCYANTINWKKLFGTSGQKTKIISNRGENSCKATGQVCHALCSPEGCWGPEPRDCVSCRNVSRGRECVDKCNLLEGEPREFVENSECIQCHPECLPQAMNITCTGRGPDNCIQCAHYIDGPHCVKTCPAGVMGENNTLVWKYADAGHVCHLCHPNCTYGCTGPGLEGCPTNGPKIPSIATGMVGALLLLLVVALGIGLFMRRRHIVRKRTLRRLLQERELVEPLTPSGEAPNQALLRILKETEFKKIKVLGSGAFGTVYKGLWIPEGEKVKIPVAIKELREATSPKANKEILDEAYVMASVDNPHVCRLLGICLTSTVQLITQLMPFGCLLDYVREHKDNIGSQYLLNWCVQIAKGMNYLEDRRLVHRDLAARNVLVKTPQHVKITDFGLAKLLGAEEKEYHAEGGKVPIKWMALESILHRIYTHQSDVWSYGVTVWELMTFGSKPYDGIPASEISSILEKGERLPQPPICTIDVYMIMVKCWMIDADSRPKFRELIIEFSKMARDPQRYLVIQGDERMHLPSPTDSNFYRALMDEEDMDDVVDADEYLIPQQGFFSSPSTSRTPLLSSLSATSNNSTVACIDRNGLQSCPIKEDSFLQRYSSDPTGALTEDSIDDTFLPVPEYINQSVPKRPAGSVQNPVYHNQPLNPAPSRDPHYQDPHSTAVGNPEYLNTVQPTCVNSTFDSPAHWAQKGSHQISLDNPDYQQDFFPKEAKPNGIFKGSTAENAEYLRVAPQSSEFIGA
pIC50 here: minus log base 10 of the concentration, concentration in moles per litre.

structure_smiles	pIC50
O=C(CSc1nnc(Cn2c(-c3ccc(Cl)cc3Cl)nc3ccccc32)o1)Nc1ccc(F)cc1F	5.92
COc1ccc(NC(=O)CSc2nnc(Cn3c(-c4ccc(Cl)cc4Cl)nc4ccccc43)o2)cc1	5.96
Clc1ccc(-c2nc3ccccc3n2Cc2nnc(SCc3cn(-c4cccc(Br)c4)nn3)o2)c(Cl)c1	6.02
COC(=O)c1ccccc1NC(=O)CSc1nnc(Cn2c(-c3ccc(Cl)cc3Cl)nc3ccccc32)o1	5.81
Oc1ccccc1-n1cc(CSc2nnc(Cn3c(-c4ccc(Cl)cc4Cl)nc4ccccc43)o2)nn1	6.48

Here's the next entry for you.
Requested read-out pIC50, target or system EGFR kinase (Homo sapiens, UniProt P00533), entry `O=C(CSc1nnc(Cn2c(-c3ccc(Cl)cc3Cl)nc3ccccc32)o1)Nc1ccc(F)cc1`
6.42
